# MEASUREMENT_DESCRIPTION: thioesterase activity (production of TNB at 412 nm)
# Type: biochemical
# TEST_PARAMETERS: crude cell extract; 200 μM substrate; expressed from pCA24N
Catalogue of Specific activities of selected thioesterases on Decanyl-CoA values
RESULT_TYPE: Specific activities of selected thioesterases on Decanyl-CoA (μmol/mg protein/min)

[[record]]
molecule = "YdiI: E. coli Acyl-CoA thioesterase (protein, UniProt P77781 1-136, looked up) 1,4-dihydroxy-2-naphthoyl-CoA …: MIWKRKITLEALNAMGEGNMVGFLDIRFEHIGDDTLEATMPVDSRTKQPFGLLHGGASVVLAESIGSVAGYLCTEGEQKVVGLEINANHVRSAREGRVRGVCKPLHLGSRHQVWQIEIFDEKGRLCCSSRLTTAIL"
measured_result = 0.18

[[record]]
molecule = "TesB: E. coli thioesterase II (protein, UniProt P0AGG2 2-286, looked up) Acyl-CoA thioesterase 2: SQALKNLLTLLNLEKIEEGLFRGQSEDLGLRQVFGGQVVGQALYAAKETVPEERLVHSFHSYFLRPGDSKKPIIYDVETLRDGNSFSARRVAAIQNGKPIFYMTASFQAPEAGFEHQKTMPSAPAPDGLPSETQIAQSLAHLLPPVLKDKFICDRPLEVRPVEFHNPLKGHVAEPHRQVWIRANGSVPDDLRVHQYLLGYASDLNFLPVALQPHGIGFLEPGIQIATIDHSMWFHRPFNLNEWLLYSVESTSASSARGFVRGEFYTQDGVLVASTVQEGVMRNHN"
measured_result = 0.6

[[record]]
molecule = "YbgC: E. coli Acyl-CoA thioesterase (protein, UniProt P0A8Z3 1-134, looked up) Acyl-CoA thioester hydrolase …: MNTTLFRWPVRVYYEDTDAGGVVYHASYVAFYERARTEMLRHHHFSQQALMAERVAFVVRKMTVEYYAPARLDDMLEIQTEITSMRGTSLVFTQRIVNAENTLLNEAEVLVVCVDPLKMKPRALPKSIVAEFKQ"
measured_result = 0.06


Data provenance: patent US9994881B2
